assayOverview: yeast display, Sf9 membrane polyspecificity reagent, FACS + sequencing; frameworks hold sequencing errors
measuredMetric: polyreactivity (PSR sort gate)

Worked set:
residues	polyreactivity (PSR sort gate)
QDQLVESGGGLVQAGGSLRLSCAASGRTSIWNAMGWYRQAPGKERELVASISWSGGSTYYADSVKGRFTISRDNAKNTVYLQMNSLKPEDTAVYYCAKTAYFLVFNEHLHKKRYDSWGQGTQVTVSS	low polyreactivity
HVQHVESGGGLVQAGGSLRVSCAASGSTFYYNAMGWYRQAPGKERELVARISRSGASTYYADSVKGRFTISRDIAKNSVYLQMNSLKPEDTAVYYCATRNLGHERWYYYWGQGTQVTVSS	high polyreactivity
QVQLVESGGGLVQAGGSLRLSSAATGYIYSHNAMGWYRQSPGKEREFVAGIDSSGGSTSYADSVKGRFTISRDNAKNTVYLQMNSLKPEDTAVYYCAADRTGSHFDYCGQGTQVTVSS	low polyreactivity
QVQLVESGGGLVQAGGSLRLSCAASGLIFGNNAMGWYRQAPGKERELVAAISWSTGGSTYYADSVKGRFTISRDNAKNTVYLQMNSLKPEDTAVYYCAAQYSYGEYWGYDYWGQGTQVTVSS	low polyreactivity

Reported polyreactivity (PSR sort gate), sequence "QVQLVESGGGLVQAGGSLRLSCAASGISFSYYAMGLCRQAPGKERELVAAISISGGRTYYADSVKGRFTISRDNAKNTVYLQMNSLKPEDTAVYYCASCVGSRIKQVGNDYWGQVTQVTVSS" : ____
high polyreactivity
